Reported pKi values, Cloned Human Serotonin Receptor, Subtype 7 (h5HT7) (Homo sapiens).
pKi: −log10 of the molar value.
attribute measured: pKi

[
  {
    "compound": "COc1ccccc1-c1cccc2c1CCC(N(C)C)C2 (centres unmarked)",
    "assay result": 7.59
  },
  {
    "compound": "CCN(C)C1CCc2c(cccc2-c2c(C)nn(C)c2C)C1 (centres unmarked)",
    "assay result": 7.99
  },
  {
    "compound": "CCN(CC)C1CCc2c(cccc2-c2c(C)nn(C)c2C)C1 (centres unmarked)",
    "assay result": 6.89
  },
  {
    "compound": "CCCN(C(C)C)[C@H]1CCc2c(cccc2-c2c(C)nn(C)c2C)C1",
    "assay result": 6.64
  },
  {
    "compound": "COc1cccc(Cl)c1-c1cccc2c1CCC(N(C)C)C2 (centres unmarked)",
    "assay result": 7.94
  },
  {
    "compound": "Cc1nn(C)c(C)c1-c1cccc2c1CC[C@H](N(C)C(C)C)C2",
    "assay result": 6.19
  },
  {
    "compound": "CCCN(C)C1CCc2c(cccc2-c2c(C)nn(C)c2C)C1 (centres unmarked)",
    "assay result": 8.04
  },
  {
    "compound": "COc1ncccc1-c1cccc2c1CCC(N(C)C)C2 (centres unmarked)",
    "assay result": 7.21
  }
]
